Origin of the recorded values: patent US7094781B2

measurement-target: human recombinant ETA receptor (Homo sapiens, UniProt P25101)
Sequence (P25101 21-427): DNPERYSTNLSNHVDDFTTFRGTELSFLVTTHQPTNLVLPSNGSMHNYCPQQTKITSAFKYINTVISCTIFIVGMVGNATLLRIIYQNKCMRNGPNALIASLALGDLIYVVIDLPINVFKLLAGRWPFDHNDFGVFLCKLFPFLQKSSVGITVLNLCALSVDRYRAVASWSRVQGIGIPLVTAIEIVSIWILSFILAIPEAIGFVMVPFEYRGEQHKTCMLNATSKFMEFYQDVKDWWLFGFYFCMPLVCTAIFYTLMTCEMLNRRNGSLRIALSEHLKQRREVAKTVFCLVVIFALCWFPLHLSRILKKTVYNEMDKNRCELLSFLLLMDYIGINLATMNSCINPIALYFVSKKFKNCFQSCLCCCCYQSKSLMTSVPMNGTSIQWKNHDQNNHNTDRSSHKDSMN
test-name: Inhibition of [125I]ET-1 binding to membranes from CHO cells carrying human ETA receptors
Note to self: class = bucket of IC50, per b0: < 2 nM; b1: ≥ 2 nM and < 6 nM; b2: ≥ 6 nM

1. COc1ccc(CNS(=O)(=O)Nc2nc(-c3ncccn3)nc(OCCOC(=O)Nc3ccccc3)c2Oc2ccccc2OC)cc1OC b1
2. O=S(=O)(NCC1CC1)Nc1ncnc(OCCOc2ncc(Br)cn2)c1-c1ccc(Br)cc1 b0
3. COc1cnc(OCCOc2nc(-c3ccncc3)nc(NS(=O)(=O)NCC3CC3)c2Oc2ccccc2OC)nc1 b2
4. O=S(=O)(NCc1ccccc1)Nc1ncnc(OCCOc2ncc(Br)cn2)c1-c1ccc(Cl)cc1 b1
5. COc1cnc(OCCOc2nc(-c3ncccn3)nc(NS(=O)(=O)NCC3CCCCC3)c2Oc2ccccc2OC)nc1 b1
6. COc1cnc(OCCOc2nc(-c3ncccn3)nc(NS(=O)(=O)NCc3ccc(Cl)cc3)c2Oc2ccccc2OC)nc1 b1
7. CSc1cnc(OCCOc2nc(-c3ccncc3)nc(NS(=O)(=O)NCc3ccccc3)c2-c2ccc(Cl)cc2)nc1 b1
8. C#CCOc1nc(-c2ccncc2)nc(NS(=O)(=O)NCc2ccc(OC)cc2)c1Oc1ccccc1OC b2

Next item in the queue.
Query: # classify by IC50 band: CSc1cnc(OCCOc2ncnc(NS(=O)(=O)NCC3CC3)c2-c2ccc(Br)cc2)nc1
Reply: b0

====

measurement-target: human recombinant ETA receptor (Homo sapiens)
test-name: Inhibition of [125I]ET-1 binding to membranes from CHO cells carrying human ETA receptors
measure: pIC50
Give bare numbers, as −log10 of the molar value.

1. COc1ccccc1Oc1c(NS(=O)(=O)NCc2ccccc2)nc(N2CCOCC2)nc1OCCOc1ncc(Br)cn1 8.99

For each listed entry, give its pIC50.
1. COc1ccc(Cl)c(Oc2c(NS(=O)(=O)NCc3ccccc3)ncnc2OCCOc2ncc(S(C)(=O)=O)cn2)c1
2. COc1ccccc1Oc1c(NS(=O)(=O)NCc2ccccn2)nc(-c2ccncc2)nc1OCCOc1ncc(SC)cn1
3. COc1ccccc1Oc1c(NS(=O)(=O)NCCc2ccccc2)nc(-c2ccncc2)nc1OCCOC(=O)Nc1ccccc1
4. COc1cnc(OCCOc2nc(-c3ncccn3)nc(NS(=O)(=O)NCC3CC3)c2Oc2ccccc2OC)nc1
5. C=CCOc1nc(-c2ccnc(-c3nnn[nH]3)c2)nc(NS(=O)(=O)NCc2ccccc2)c1Oc1ccccc1OC

Reply:
9.12
8.00
7.84
8.14
6.13

====

measurement-target: ETA receptors (rat aortic rings) (Rattus norvegicus)
Construct: The thoracic aorta or trachea were excised, dissected and cut in 3–5 mm rings; from tissue; host or cells: thoracic aorta rings of adult Wistar rats, endothelium removed
Sequence (P26684 21-426): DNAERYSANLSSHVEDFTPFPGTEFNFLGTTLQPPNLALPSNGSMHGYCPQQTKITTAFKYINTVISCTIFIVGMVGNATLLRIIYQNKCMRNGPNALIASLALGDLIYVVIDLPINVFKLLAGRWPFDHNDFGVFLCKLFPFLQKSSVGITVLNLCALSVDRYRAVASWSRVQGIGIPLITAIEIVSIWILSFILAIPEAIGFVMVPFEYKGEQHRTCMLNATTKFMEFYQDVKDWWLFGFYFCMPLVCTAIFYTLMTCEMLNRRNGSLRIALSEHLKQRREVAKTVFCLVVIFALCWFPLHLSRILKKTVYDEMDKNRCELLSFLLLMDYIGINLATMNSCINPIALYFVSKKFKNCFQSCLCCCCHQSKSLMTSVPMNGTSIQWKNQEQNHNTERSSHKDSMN
test-name: Inhibition of endothelin-1-induced contraction on isolated rat aortic rings
Could you please report measured Kb for the items listed next?
Give bare numbers, in nM.

Some molecules with known Kb results, for comparison:
molecule	measurement-target	measure	unit-label	endpoint-result
CSc1cnc(OCCOc2ncnc(NS(=O)(=O)NCc3ccccc3)c2-c2ccc(Br)cc2)nc1 [Example 102]	ETA receptors (rat aortic rings) (Rattus norvegicus)	Kb	nM	3.98
COc1ccc(CNS(=O)(=O)Nc2nc(-c3ccncc3)nc(OC)c2Oc2ccccc2OC)cc1 [Example 161]	ETA receptors (rat aortic rings) (Rattus norvegicus)	Kb	nM	513
COc1ccccc1Oc1c(NS(=O)(=O)NCc2ccccc2)nc(-c2ncccn2)nc1OCCOC(=O)Nc1ccccn1 [Example 41]	ETA receptors (rat aortic rings) (Rattus norvegicus)	Kb	nM	4.27
O=S(=O)(NCc1cccs1)Nc1ncnc(OCCOc2ncc(Br)cn2)c1-c1ccc(Cl)cc1 [Example 20]	ETA receptors (rat aortic rings) (Rattus norvegicus)	Kb	nM	61.7
Cc1ccc(-c2c(NS(=O)(=O)NCC3CC3)ncnc2OCCOc2ncc(Br)cn2)cc1 [Example 119]	ETA receptors (rat aortic rings) (Rattus norvegicus)	Kb	nM	41.7

For this molecule ( COc1ccccc1Oc1c(NS(=O)(=O)NCC2CCCCC2)nc(-c2ncccn2)nc1OCCOc1ncc(Br)cn1 [Example 133] ), measured Kb is 19.1

====

Answer each item with its documented IC50.
measurement-target: human recombinant ETB receptor (Homo sapiens)
Sequence (P24530 27-442): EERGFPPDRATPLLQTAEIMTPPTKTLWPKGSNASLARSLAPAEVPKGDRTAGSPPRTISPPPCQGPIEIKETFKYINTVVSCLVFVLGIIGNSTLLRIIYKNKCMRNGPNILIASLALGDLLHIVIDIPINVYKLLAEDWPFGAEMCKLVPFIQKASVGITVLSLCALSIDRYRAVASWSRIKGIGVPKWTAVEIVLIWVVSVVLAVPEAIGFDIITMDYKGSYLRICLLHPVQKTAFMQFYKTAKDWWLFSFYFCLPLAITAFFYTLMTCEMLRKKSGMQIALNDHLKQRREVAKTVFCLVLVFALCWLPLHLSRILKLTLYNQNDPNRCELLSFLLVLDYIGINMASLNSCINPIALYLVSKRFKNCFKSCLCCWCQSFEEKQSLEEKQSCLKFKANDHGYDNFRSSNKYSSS
test-name: Inhibition of [125I]ET-1 binding to membranes from CHO cells carrying human ETB receptors

Example results:
compound	IC50
COc1cnc(OCCOc2nc(-c3ncccn3)nc(NS(=O)(=O)NC3CC3)c2Oc2ccccc2OC)nc1 [Example 200]	310 nM
O=S(=O)(Nc1ncnc(OCCOc2ncc(Br)cn2)c1-c1ccc(Cl)cc1)NC1CC1 [Example 114]	> 1000 nM
COc1ccccc1Oc1c(NS(=O)(=O)Nc2ccc(C(C)C)cc2)nc(-c2ccncc2)nc1OC [Example 1]	8430 nM
COc1ccccc1Oc1c(NS(=O)(=O)NCc2ccc(F)cc2)nc(-c2ncccn2)nc1OCCOc1ncc(Br)cn1 [Example 142]	108 nM

Below are 8 compounds. Give each one its IC50.
1. COc1cnc(OCCOc2nc(C3CC3)nc(NS(=O)(=O)NCc3ccccc3)c2Oc2ccccc2OC)nc1 [Example 89]
2. COc1ccccc1Oc1c(NS(=O)(=O)NCC2CCCCC2)nc(-c2ncccn2)nc1OCCOc1ncc(Br)cn1 [Example 133]
3. COc1ccccc1Oc1c(NS(=O)(=O)NCc2cccs2)nc(-c2ccncc2)nc1OCCOc1ncc(Br)cn1 [Example 80]
4. CCNS(=O)(=O)Nc1nc(-c2ccncc2)nc(OC)c1Oc1ccccc1OC [Example 7]
5. O=S(=O)(NCC1CC1)Nc1ncnc(OCCOc2ncc(Br)cn2)c1-c1ccc(Cl)cc1 [Example 112]
6. COc1ccc(CNS(=O)(=O)Nc2nc(-c3ccncc3)nc(OC)c2Oc2ccccc2OC)cc1 [Example 161]
7. COc1ccccc1Oc1c(NS(=O)(=O)Nc2ccccn2)nc(-c2ccncc2)nc1OC [Example 9]
8. COc1ccccc1Oc1c(NS(=O)(=O)NCc2ccccn2)nc(-c2ccncc2)nc1OCCOc1ncc(SC)cn1 [Example 158]

Reply:
1: 621 nM; 2: 212 nM; 3: > 1000 nM; 4: 9470 nM; 5: 257 nM; 6: > 1000 nM; 7: > 10000 nM; 8: 80 nM

Below are 6 compounds. Give each one its IC50.
1. Cc1ccc(-c2c(NS(=O)(=O)NCc3ccccc3)nc(-c3ccncc3)nc2OCCOC(=O)Nc2ccccn2)cc1 [Example 34]
2. COc1cccc(CNS(=O)(=O)Nc2nc(-c3ncccn3)nc(OCCOc3ncccn3)c2Oc2ccccc2OC)c1 [Example 171]
3. COc1ccccc1Oc1c(NS(=O)(=O)NCc2ccccc2)nc(-c2ccncc2)nc1OCCOc1ncc(SC)cn1 [Example 74]
4. COc1ccccc1Oc1c(NS(=O)(=O)Nc2ccc(C(C)C)cc2)nc(-c2ccncc2)nc1OCCO [Example 3]
5. COc1ccccc1Oc1c(NS(=O)(=O)NCc2ccco2)nc(-c2ncccn2)nc1OCCOC(=O)Nc1cnccn1 [Example 61]
6. COc1ccc(CNS(=O)(=O)Nc2nc(-c3ncccn3)nc(OCCOc3ncc(OC)cn3)c2Oc2ccccc2OC)cc1 [Example 49]

Reply:
3270 nM
61 nM
164 nM
744 nM
200 nM
25.4 nM

====

measurement-target: human recombinant ETB receptor (Homo sapiens)
test-name: Inhibition of [125I]ET-1 binding to membranes from CHO cells carrying human ETB receptors
Provide the recorded log10 IC50 for the entries that follow.
Field: value | Transform: log10 | Quantity: IC50 | Unit: µM

1. O=S(=O)(NCc1cccs1)Nc1ncnc(OCCOc2ncc(Br)cn2)c1-c1ccc(Cl)cc1 0.24
2. COc1cccc(CNS(=O)(=O)Nc2nc(-c3ncccn3)nc(OCCOc3ncc(Br)cn3)c2Oc2ccccc2OC)c1 -1.38
3. COc1ccc(Cl)c(Oc2c(NS(=O)(=O)NCc3ccccc3)ncnc2OCCOc2ncc(SC)cn2)c1 -0.46

# batch size: 7; output log10 IC50 per entry
1. COc1ccccc1Oc1c(NS(=O)(=O)NCc2ccco2)nc(-c2ncccn2)nc1OCCOc1ncc(Br)cn1
2. COc1cnc(OCCOc2ncnc(NS(=O)(=O)NCc3cccs3)c2-c2ccc(Cl)cc2)nc1
3. COc1cnc(OCCOc2nc(-c3ccncc3)nc(NS(=O)(=O)NCc3ccccc3)c2-c2ccc(Cl)cc2)nc1
4. COc1ccc(CNS(=O)(=O)Nc2nc(-c3ncccn3)nc(OC)c2Oc2ccccc2OC)cc1
5. COc1ccccc1Oc1c(NS(=O)(=O)NCc2ccccc2)nc(-c2ncccn2)nc1OCCOC(=O)Nc1cnccn1
6. O=S(=O)(NCc1ccco1)Nc1ncnc(OCCOc2ncc(Br)cn2)c1-c1ccc(Cl)cc1
7. COc1ccccc1Oc1c(NS(=O)(=O)NCc2ccccn2)nc(-c2ncccn2)nc1OCCOc1ncc(Br)cn1

Reply:
-0.63
0.00
0.57
-0.51
-0.84
0.40
-0.39

====

I'd be grateful if you could share measured IC50 for these entries.
measurement-target: human recombinant ETA receptor (Homo sapiens)
test-name: Inhibition of [125I]ET-1 binding to membranes from CHO cells carrying human ETA receptors
Answers are plain numbers, in nM.

Below, each entry is followed by its recorded IC50 result.
1. Cc1ccc(-c2c(NS(=O)(=O)NCC3CC3)ncnc2OCCOc2ncc(Br)cn2)cc1 4.2
2. COc1cccc(CNS(=O)(=O)Nc2nc(-c3ncccn3)nc(OCCOc3ncc(Br)cn3)c2Oc2ccccc2OC)c1 1.7
3. COc1ccccc1Oc1c(NS(=O)(=O)NCc2ccccc2)nc(-c2ccncc2)nc1OCCOc1ncc(Br)cn1 1.9
4. COc1ccccc1Oc1c(NS(=O)(=O)NC2CC2)nc(-c2ncccn2)nc1OCCOc1ncc(Br)cn1 12
5. COc1ccc(CNS(=O)(=O)Nc2nc(-c3ncccn3)nc(OCCOc3ncc(Br)cn3)c2Oc2ccccc2OC)cc1 1.46
6. CCCCNS(=O)(=O)Nc1ncnc(OCCOc2ncc(Br)cn2)c1-c1ccc(Cl)cc1 0.45

Could you now look at the following compound, please?
Field IC50 (system: human recombinant ETA receptor (Homo sapiens)) for entry COc1cnc(OCCOc2ncnc(NS(=O)(=O)NCc3cccs3)c2-c2ccc(Cl)cc2)nc1 = 7
